tested on: SOX17 (endoderm marker) in RUES2-GLR cells; assay: DevTox GLR-Endo assay: increase in percent SOX17-positive cells (AEID 3093, Sox17_up); assay type: cell-based, human; details: Homo sapiens; tcpl plot AEID3093, maximum mean response; read-out: MAX_MEAN
Catalogue of Emax readings, one per entry.
Answer in %, number only, no unit symbol.

The cases that follow already have their Emax on record.
[
  {
    "COMPOUND": "O=C1NS(=O)(=O)c2ccccc21 [Saccharin]",
    "VALUE REPORTED": 10.2
  },
  {
    "COMPOUND": "CC1=C(/C=C/C(C)=C/C=C/C(C)=C/CO)C(C)(C)CCC1 [Retinol]",
    "VALUE REPORTED": 1.1
  },
  {
    "COMPOUND": "CN1CCN2c3ccccc3Cc3ccccc3C2C1 (centres unmarked) [Mianserin]",
    "VALUE REPORTED": 2.7
  }
]

Input line: Report Emax for CCCc1cc(=O)[nH]c(=S)[nH]1
Output line: 7.44

Input line: Report Emax for CNC(=O)c1cc(Oc2ccc(NC(=O)Nc3ccc(Cl)c(C(F)(F)F)c3)cc2)ccn1 [Sorafenib]
Output line: 8.73

Input line: Report Emax for Cc1ccc(NC(=O)c2ccc(CN3CCN(C)CC3)cc2)cc1Nc1nccc(-c2cccnc2)n1 [Imatinib]
Output line: 7.83

Input line: Report Emax for O=C1CCC(N2C(=O)c3ccccc3C2=O)C(=O)N1 (centres unmarked) [Thalidomide]
Output line: 4.62

Input line: Report Emax for Cn1c(=O)c2c(ncn2C)n(C)c1=O [Caffeine]
Output line: 9.91

Input line: Report Emax for Nc1cccc2c1CN(C1CCC(=O)NC1=O)C2=O (centres unmarked) [Lenalidomide]
Output line: 10.3

###

system: RUES2-GLR cells; assay: DevTox GLR-Endo assay: decrease in total cell count, cytotoxicity (AEID 3098, CellCount_dn); conditions: Table S2, 48 h exposure
Where a name gives a salt, the structure may show the parent alone.
VALUE TYPE: Cell Count ACC (µM)
Answer in µM, number only, no unit symbol.

The cases that follow already have their Cell Count ACC on record.
[
  {
    "MOLECULE": "COc1cc2c(Nc3ccc(Br)cc3F)ncnc2cc1OCC1CCN(C)CC1 [Vandetanib]",
    "MEASUREMENT UNIT": "µM",
    "Cell Count ACC": 2.124
  },
  {
    "MOLECULE": "CCN(CC)CCNC(=O)c1c(C)[nH]c(/C=C2\\C(=O)Nc3ccc(F)cc32)c1C [Sunitinib]",
    "MEASUREMENT UNIT": "µM",
    "Cell Count ACC": 0.6087
  },
  {
    "MOLECULE": "CNC(=O)c1cc(Oc2ccc(NC(=O)Nc3ccc(Cl)c(C(F)(F)F)c3)cc2)ccn1 [Sorafenib]",
    "MEASUREMENT UNIT": "µM",
    "Cell Count ACC": 0.4993
  },
  {
    "MOLECULE": "NC(=O)NO [Hydroxyurea]",
    "MEASUREMENT UNIT": "µM",
    "Cell Count ACC": 64.5432
  },
  {
    "MOLECULE": "CC(=O)CC(c1ccccc1)c1c(O)c2ccccc2oc1=O (stereo not shown) [Warfarin]",
    "MEASUREMENT UNIT": "µM",
    "Cell Count ACC": 197.749
  },
  {
    "MOLECULE": "Cc1nc2sccn2c(=O)c1CCN1CCC(=C(c2ccc(F)cc2)c2ccc(F)cc2)CC1 [Ritanserin]",
    "MEASUREMENT UNIT": "µM",
    "Cell Count ACC": 6.426
  },
  {
    "MOLECULE": "[H]/N=C(/NCCCCC)N/N=C/c1c[nH]c2ccc(OC)cc12 [Tegaserod Maleate]",
    "MEASUREMENT UNIT": "µM",
    "Cell Count ACC": 4.239
  }
]

Input line: Report Cell Count ACC for NC(=O)c1ccc(N)nc1 [6-Aminonicotinamide, 6−aminopyridine−3−carboxamide]
Output line: 20.3443

###

System: RUES2-GLR cells
Assay: in vitro
Details: human, 48 h
Experimental: The total test chemical incubation period was 48 h. Assay plate controls included non-differentiated pluripotent cells maintained in complete Essential 8 Flex medium (baseline control), endoderm differentiated cells (differentiation control), endoderm differentiated cells treated with DMSO (0.2%) (solvent control), and TGF-ß receptor inhibitor SB431542 (1 µM)-treated cells (developmental toxicant-positive control) (Figure S3). […]
Field 'label' (enum: true / false). Set to true when DevTox-GLR Endo CC is strictly under 9 µM; else false.

Solved cases (7 shown):
[
  {
    "COMPOUND": "CC(C)(c1ccc(O)cc1)c1ccc(O)cc1 [Bisphenol A]",
    "ASSAY SYSTEM": "RUES2-GLR cells",
    "DISCRETE LABEL": "false"
  },
  {
    "COMPOUND": "CO[C@H]1/C=C/O[C@@]2(C)Oc3c(C)c(O)c4c(O)c(c(/C=N/N5CCN(C)CC5)c(O)c4c3C2=O)NC(=O)/C(C)=C\\C=C\\[C@H](C)[C@H](O)[C@@H](C)[C@@H](O)[C@@H](C)[C@H](OC(C)=O)[C@@H]1C [Rifampicin]",
    "ASSAY SYSTEM": "RUES2-GLR cells",
    "DISCRETE LABEL": "false"
  },
  {
    "COMPOUND": "CC[C@H](C)C(=O)O[C@H]1C[C@@H](C)C=C2C=C[C@H](C)[C@H](CC[C@@H]3C[C@@H](O)CC(=O)O3)[C@H]21 [Lovastatin]",
    "ASSAY SYSTEM": "RUES2-GLR cells",
    "DISCRETE LABEL": "true"
  },
  {
    "COMPOUND": "COc1ccc2c(c1)c(CC(=O)O)c(C)n2C(=O)c1ccc(Cl)cc1 [Indomethacin]",
    "ASSAY SYSTEM": "RUES2-GLR cells",
    "DISCRETE LABEL": "true"
  },
  {
    "COMPOUND": "CC/C(=C(/CC)c1ccc(O)cc1)c1ccc(O)cc1 [Diethylstilbestrol]",
    "ASSAY SYSTEM": "RUES2-GLR cells",
    "DISCRETE LABEL": "true"
  },
  {
    "COMPOUND": "Cc1cn([C@H]2C=C[C@@H](CO)O2)c(=O)[nH]c1=O [Stavudine]",
    "ASSAY SYSTEM": "RUES2-GLR cells",
    "DISCRETE LABEL": "false"
  },
  {
    "COMPOUND": "CN(Cc1cnc2nc(N)nc(N)c2n1)c1ccc(C(=O)N[C@@H](CCC(=O)O)C(=O)O)cc1 [Methotrexate]",
    "ASSAY SYSTEM": "RUES2-GLR cells",
    "DISCRETE LABEL": "true"
  }
]

Input line: Criterion: DevTox-GLR Endo CC strictly below 9 µM. Is it met by O=C1NC(=O)C(c2ccccc2)(c2ccccc2)N1 ?
Output line: false

###

Catalogue of HIT−CALL readings, one per entry.
tested on: SOX17 (endoderm marker) in RUES2-GLR cells; assay: DevTox GLR-Endo assay: decrease in percent SOX17-positive cells (AEID 3094, Sox17_dn); conditions: tcpl plot AEID3094, COFF 20.3
Please give only the number in your answer, with no unit.

[
  {
    "MOL": "O=C(O)c1cccnc1",
    "ASSAY SYSTEM": "SOX17 (endoderm marker) in RUES2-GLR cells",
    "VALUE TYPE": "HIT−CALL",
    "VALUE REPORTED": 0
  },
  {
    "MOL": "Cc1nc2sccn2c(=O)c1CCN1CCC(=C(c2ccc(F)cc2)c2ccc(F)cc2)CC1",
    "ASSAY SYSTEM": "SOX17 (endoderm marker) in RUES2-GLR cells",
    "VALUE TYPE": "HIT−CALL",
    "VALUE REPORTED": 1
  }
]

Input line: Report HIT−CALL for CC(=O)Nc1ccc(O)cc1
Output line: 0

Input line: Report HIT−CALL for Cn1c(=O)c2c(ncn2C)n(C)c1=O
Output line: 0

Input line: Report HIT−CALL for CC1=C2C[C@H]3[C@@H](CC=C4C[C@@H](O)CC[C@@]43C)[C@@H]2CC[C@]12O[C@@H]1C[C@H](C)CN[C@H]1[C@H]2C
Output line: 0

Input line: Report HIT−CALL for COc1cccc2c1C(=O)c1c(O)c3c(c(O)c1C2=O)C[C@@](O)(C(=O)CO)C[C@@H]3O[C@H]1C[C@H](N)[C@H](O)[C@H](C)O1
Output line: 1

Input line: Report HIT−CALL for NNC(=O)c1ccncc1
Output line: 0

Input line: Report HIT−CALL for CS(=O)(=O)OCCCCOS(C)(=O)=O
Output line: 1

Input line: Report HIT−CALL for CC(=O)Oc1ccccc1C(=O)O
Output line: 0
